- Test system: Subtilisin
- EXPERIMENTAL DETAILS: Esterase assay, subtilisin
- Format: biochemical
- EXPERIMENTAL CONTEXT: Z-AX-OMe substrate, X = P1 residue; rates approximately ± 10%
Where a SMILES comes first, the peptide text is derived from it. The star is where a group is joined. Cbz = O=C(OCc1ccccc1)*
QUANTITY NAME: Esterase rate, Subtilisin

Check out these entries, answers already filled in.
COC(=O)[C@H](Cc1cnc[nH]1)NC(=O)[C@H](C)NC(=O)OCc1ccccc1 [His] (Cbz-Ala-His-OMe) = 249 A580 change/min./mg protease
COC(=O)[C@H](CC(=O)O)NC(=O)[C@H](C)NC(=O)OCc1ccccc1 [Asp] (Cbz-Ala-Asp-OMe) = trace
COC(=O)[C@@H](NC(=O)[C@H](C)NC(=O)OCc1ccccc1)[C@@H](C)O [Thr] (Cbz-Ala-Thr-OMe) = 123 A580 change/min./mg protease
CC[C@H](C)[C@H](NC(=O)[C@H](C)NC(=O)OCc1ccccc1)C(=O)OC [Ile] (Cbz-Ala-Ile-OMe) = 16 A580 change/min./mg protease
COC(=O)[C@H](CCC(N)=O)NC(=O)[C@H](C)NC(=O)OCc1ccccc1 [Gln] (Cbz-Ala-Gln-OMe) = 1308 A580 change/min./mg protease
COC(=O)[C@H](CO)NC(=O)[C@H](C)NC(=O)OCc1ccccc1 [Ser] (Cbz-Ala-Ser-OMe) = 366 A580 change/min./mg protease

From here, focus on the item given below.
input: Tell me the measured Esterase rate, Subtilisin of COC(=O)[C@@H]1CCCN1C(=O)[C@H](C)NC(=O)OCc1ccccc1 [Pro] (Cbz-Ala-Pro-OMe) , please.
output: trace

---

The molecules listed here are annotated with their Esterase rate, α-Lytic protease.
- STUDY SYSTEM: UniProt P00778
- Sequence (P00778 25-397 limits assumed): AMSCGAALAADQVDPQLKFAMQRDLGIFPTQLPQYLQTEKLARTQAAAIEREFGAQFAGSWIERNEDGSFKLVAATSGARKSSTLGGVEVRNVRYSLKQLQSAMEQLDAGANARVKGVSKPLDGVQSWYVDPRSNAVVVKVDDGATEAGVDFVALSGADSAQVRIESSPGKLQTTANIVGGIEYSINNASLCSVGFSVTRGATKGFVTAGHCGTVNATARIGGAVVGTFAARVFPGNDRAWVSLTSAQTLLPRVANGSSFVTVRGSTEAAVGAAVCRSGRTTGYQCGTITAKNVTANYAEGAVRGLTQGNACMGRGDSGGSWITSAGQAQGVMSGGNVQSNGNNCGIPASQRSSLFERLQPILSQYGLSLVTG
- EXPERIMENTAL DETAILS: Esterase assay, α-lytic protease
- Type: biochemical
- EXPERIMENTAL CONTEXT: Z-AX-OMe substrate, X = P1 residue; rates approximately ± 10%
Where a SMILES comes first, the peptide text is derived from it. The star is where a group is joined. Cbz = O=C(OCc1ccccc1)*

Check out these entries, answers already filled in.
COC(=O)[C@H](CCCNC(=N)N)NC(=O)[C@H](C)NC(=O)OCc1ccccc1 [Arg, Z-Ala-Arg-OMe] (Cbz-Ala-Arg-OMe) = 0 A580 change/min./mg protease
COC(=O)[C@H](CC(=O)O)NC(=O)[C@H](C)NC(=O)OCc1ccccc1 [Asp] (Cbz-Ala-Asp-OMe) = 0 A580 change/min./mg protease
COC(=O)[C@H](Cc1ccccc1)NC(=O)[C@H](C)NC(=O)OCc1ccccc1 = 0 A580 change/min./mg protease
COC(=O)CNC(=O)[C@H](C)NC(=O)OCc1ccccc1 [Gly] (Cbz-Ala-Gly-OMe) = 0 A580 change/min./mg protease
COC(=O)[C@@H]1CCCN1C(=O)[C@H](C)NC(=O)OCc1ccccc1 [Pro] (Cbz-Ala-Pro-OMe) = 0 A580 change/min./mg protease

From here, focus on the item given below.
input: Tell me the measured Esterase rate, α-Lytic protease of COC(=O)[C@H](CO)NC(=O)[C@H](C)NC(=O)OCc1ccccc1 [Ser] (Cbz-Ala-Ser-OMe) , please.
output: 0.7 A580 change/min./mg protease

Hey, just so you know, these numbers are from patent US5932410A.
